# Tested on: MALME-3M melanoma
# ASSAY TEXT: NCI-60 one-dose screen, 48 h (100 = growth as untreated, 0 = no growth, -100 = all killed)
# RUN PARAMETERS: 10 µM unless noted
Compounds without any hit were thinned out: in the full panel of roughly 83,000, 20% have a hit.
Output y for records whose growth is lower than 50%, n for records at or above 50%.

1. COc1cc(C2C(C#N)=C(N)OC3=C2C(=O)c2ccccc2C3=O)cc(OC)c1O (centres undefined): n
2. O=c1cc(-c2ccccc2)oc2cc(OCc3cn(Cc4ccc(F)cc4)nn3)cc(OCc3cn(Cc4ccc(F)cc4)nn3)c12: y
3. COc1ccc(CCN2CCC(CN(C)Cc3cnn(-c4ccccc4)c3)CC2)cc1: y
4. O=S1(=O)N(Cc2ccccc2)[C@@H](Cc2ccccc2)[C@H](O)[C@H](O)[C@H](Cc2ccccc2)N1Cc1ccccc1: y
5. NC(CCl)=NCCC[C@H](N)C(=O)O: n
6. CCOc1cccc(/C=N/NC(=O)C(=O)Nc2cccc(C(F)(F)F)c2)c1O: n
7. NCCOc1ncccc1/C=C1\c2ccccc2-c2ccc([N+](=O)[O-])cc21: y
8. COc1cc(/C=C2\CCC/C(=C\c3cc(CN4CCOCC4)c(O)c(OC)c3)C2=O)cc(CN2CCOCC2)c1O: y
9. COc1ccc(OC)c(NC(=O)/C(C#N)=C/c2ccco2)c1: n

---

# System: NCI/ADR-RES ovarian
# ASSAY TEXT: NCI-60 one-dose screen, 48 h (100 = growth as untreated, 0 = no growth, -100 = all killed)
# RUN PARAMETERS: 10 µM unless noted
# Procedure: Growth inhibition of the NCI/ADR-RES human […] tumor cell line is measured as a screen for anti-cancer activity. Cells are grown in 96 well plates and exposed to the test compound for 48 hours. Compounds are tested at a single concentration, which is 10^-5 M for most compounds. The reported endpoint is percent growth (GI% or GIPRCNT), where numbers from 0 - 100% represent growth inhibition, and numbers from -100% - 0 represent cell death. For example, a value of 40 represents 60% growth inhibition. […]
Compounds without any hit were thinned out: in the full panel of roughly 83,000, 20% have a hit.
Output MET for records whose growth is lower than 80%, NOT MET for records at or above 80%.

1. CCCCCCc1cc2cc(-c3csc(/C=C/c4ccccc4)n3)c(=O)oc2cc1O: MET
2. CNCCNc1nc2ccccc2c2c(=O)c3cccc(C)c3sc12: MET
3. COC(=O)c1c2c(c(C)[n+]([O-])c1C)C(=O)C(NCc1ccc(Br)cc1)=CC2=O: MET
4. Brc1ccc(Nc2nc3ccccc3nc2Nc2ccc(Br)cc2)cc1: MET
5. CCOC(=O)c1c(C=O)nc2ccccc2c1/C=C/c1ccc(Cl)cc1: NOT MET
6. CN(C)CCNc1cc(-c2ccccc2)nc2ccccc12: MET
7. O=C(Nc1ncc(Cc2cccc(C(F)(F)F)c2)s1)C1COc2ccccc2O1 (configuration not stated): NOT MET
8. CN(C)c1ccc(N=Cc2ccc(N3CCOCC3)cc2)cc1: NOT MET
9. O=C1/C(=C/c2cccc(O)c2)COc2ccc(O)cc21: NOT MET
10. CC1=C(CC(=O)c2cccc([N+](=O)[O-])c2)C(=O)c2ccccc2C1=O: MET
11. CC(=O)n1cc(-c2c[nH]c3ccccc23)c(-c2ccc(Cl)cc2)n1: NOT MET
12. CN1C(=O)N(C)C2(c3ccccc3)OC(=S)NC12c1ccccc1 (configuration not stated): NOT MET
13. COc1ccc(C(O)(CCC(C)C)C(CN2CCOCC2)c2ccc(Cl)cc2)cc1 (configuration not stated): MET
14. Clc1ccc(Nc2nnc(-c3ccc4c(c3)OCO4)o2)cc1: NOT MET
15. CCC1=C[C@]2(C3CC(=O)N(c4ccccc4)C3=O)CC(C(C)(C)C)C[C@@H]2[C@@H]2C(=O)N(c3ccccc3)C(=O)[C@H]12 (some centres not stated): NOT MET
16. CCOc1ccc2c(c1)CN(Cc1ccc(Cl)cc1)CO2: MET
17. O=C(Nc1ccc(-c2nc3cc4ccccc4cc3[nH]2)cc1)c1cccc(Br)c1: MET
18. O=C(NC1CCCCC1)C(c1cccs1)N(CCc1ccccc1)C(=O)c1ccco1 (configuration not stated): NOT MET
19. CC(=O)c1ccc(Nc2nc(NCCO)nc(Nc3ccc(Cl)cc3)n2)cc1: NOT MET
20. COc1ccc(CSc2nnc(SCC(=O)Nc3ccc(Cl)cc3)s2)cc1: MET
21. CCCCc1c(CCC)c(=N)c2ccccc2n1C: NOT MET
